These entries and their values trace back to patent US20200188471A1.

biological target: TNFR1; test: BIAcore SPR, TNFR1 coated on CM-5 chip, peptide injected
Sequence (P19438 whole entry): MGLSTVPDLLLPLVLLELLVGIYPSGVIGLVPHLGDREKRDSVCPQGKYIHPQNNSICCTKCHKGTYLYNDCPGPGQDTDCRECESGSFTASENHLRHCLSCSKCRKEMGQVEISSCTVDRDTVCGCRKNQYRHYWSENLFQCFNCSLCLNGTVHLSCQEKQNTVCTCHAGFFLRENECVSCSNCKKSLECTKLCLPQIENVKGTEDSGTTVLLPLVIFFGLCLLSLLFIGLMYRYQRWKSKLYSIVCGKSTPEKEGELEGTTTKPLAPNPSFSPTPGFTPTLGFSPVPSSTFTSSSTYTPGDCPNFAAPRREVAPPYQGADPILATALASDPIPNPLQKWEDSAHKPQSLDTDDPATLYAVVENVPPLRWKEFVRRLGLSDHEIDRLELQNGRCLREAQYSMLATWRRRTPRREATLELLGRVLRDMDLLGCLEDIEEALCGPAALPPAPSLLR
pKd: −log10 of the molar value.
measured.attribute: pKd

DEQHLETELH (modifications not checked) [selective TNFR1 antagonist peptide Hydrostatin-SN10]	5.55
